Origin of values: patent US8846675B2

biological target: IC-GPCR2 (Homo sapiens); construct: expressed in transfected cells; experiment: Stimulation of cAMP in CHO cell line stably expressing IC-GPCR2 (HTRF cAMP dynamic kit); type: cell-based; settings: 3 μM compound; relative to maximal activity of 5-Ethyl-2-{4-[4-(4-tetrazol-1-yl-phenoxymethyl)-thiazol-2-yl]-piperidin-1-yl}-pyrimidine (=100%); IC-GPCR2 stably expressing CHO cells, 30 minutes
Sequence (Q8TDV5 whole entry S309L): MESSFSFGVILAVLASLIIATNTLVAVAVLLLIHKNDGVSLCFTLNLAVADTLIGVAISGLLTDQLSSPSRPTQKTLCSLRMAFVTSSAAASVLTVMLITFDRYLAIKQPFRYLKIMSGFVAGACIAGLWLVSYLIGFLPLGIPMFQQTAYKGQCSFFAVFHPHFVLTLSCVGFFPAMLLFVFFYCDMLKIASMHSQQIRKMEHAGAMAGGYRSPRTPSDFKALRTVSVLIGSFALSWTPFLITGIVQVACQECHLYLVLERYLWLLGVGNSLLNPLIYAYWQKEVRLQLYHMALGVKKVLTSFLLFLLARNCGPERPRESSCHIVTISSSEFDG
Catalogue of % activity at 3 μM readings, one per entry.
Reply numerically in %, unit not repeated.

Completed entries (count: 5):
molecule	unit_of_measurement	% activity at 3 μM
CC(C)COC(=O)N1CCC(n2ncc(COc3ccc(-n4cnnn4)cc3F)n2)CC1 [Example 101]	%	50.67
CC(C)(C)OC(=O)N1CCC(n2cc(COc3ccc(-n4cnnn4)cc3)cn2)CC1 [Example 8]	%	77.16
Cc1nc(-n2cncn2)ccc1OCc1cnn(C2CCN(c3ncc(C(F)(F)F)cn3)CC2)n1 [Example 64]	%	66.18
CC(C)(C)OC(=O)N1CCC(n2ncc(COc3ccc(S(C)(=O)=O)cc3F)n2)CC1 [Example 4]	%	79.18
Fc1cnc(N2CCC(n3ncc(COc4ccc(-n5cnnn5)nc4)n3)CC2)nc1 [Example 31]	%	59.95

Look at this molecule and give its reported % activity at 3 μM. Clc1cnc(N2CCC(n3ncc(COc4ccc(-n5ccnn5)cc4)n3)CC2)nc1 [Example 92] 58.28

How about this molecule: CC(C)(C)OC(=O)N1CCC(n2nnc(COc3ccc(S(C)(=O)=O)cc3F)n2)CC1 [Example 5] 75.78

How about this molecule: Fc1cnc(N2CCC(n3ncc(COc4ccc(-n5cnnn5)cc4F)n3)CC2)nc1 [Example 30] 53.41
